# target: recombinant sEH (Homo sapiens)
# Sequence (P34913 1-555): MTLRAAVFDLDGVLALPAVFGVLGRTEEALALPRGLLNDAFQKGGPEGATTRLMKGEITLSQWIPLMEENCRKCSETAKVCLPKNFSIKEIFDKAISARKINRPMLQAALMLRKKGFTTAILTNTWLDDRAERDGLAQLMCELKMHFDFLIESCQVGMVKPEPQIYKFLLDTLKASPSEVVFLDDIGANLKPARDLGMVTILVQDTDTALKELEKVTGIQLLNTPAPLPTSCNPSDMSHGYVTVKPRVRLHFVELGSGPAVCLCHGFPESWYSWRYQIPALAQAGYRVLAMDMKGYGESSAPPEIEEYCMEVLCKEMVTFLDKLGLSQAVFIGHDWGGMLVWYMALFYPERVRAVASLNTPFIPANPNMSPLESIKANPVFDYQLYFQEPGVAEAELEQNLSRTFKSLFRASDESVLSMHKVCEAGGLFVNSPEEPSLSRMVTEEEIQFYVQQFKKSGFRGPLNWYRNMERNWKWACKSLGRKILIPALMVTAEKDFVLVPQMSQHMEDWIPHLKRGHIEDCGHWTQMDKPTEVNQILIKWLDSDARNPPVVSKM
# test protocol: biochemical screening assay for inhibition of soluble epoxide hydrolase (fluorometric, Phome substrate)
Structures can show the parent of a compound that is named as a salt.
recorded metric: pIC50
Please keep in mind that pIC50 is minus log10 of the molar concentration; only the number is needed.

Given the entry COc1cc(NC(=O)N[C@H]2CO[C@@H]3[C@@H]2OC[C@H]3C#Cc2ccccc2)cc(OC)c1 [Example 284] , report its measured pIC50.
7.15

Given the entry O=C(Nc1ccc2c(c1)OCCO2)N[C@H]1CO[C@H]2[C@@H]1OC[C@@H]2/C=C\c1ccccc1 [Example 318] , report its measured pIC50.
6.64

Given the entry O=C(NC1CCCCC1)N[C@H]1CO[C@H]2[C@@H]1OC[C@@H]2Oc1ccc(C(F)(F)F)nc1 [Example 42] , report its measured pIC50.
7.33

Given the entry COC(=O)c1cncc(O[C@H]2CO[C@H]3[C@@H]2OC[C@@H]3NC(=O)NC2CCCCC2)c1 [Example 111] , report its measured pIC50.
9.00

Given the entry O=C(NC1CCCCC1)N[C@H]1CO[C@H]2[C@@H]1OC[C@@H]2Oc1ccc(F)c(Cl)c1 [Example 29] , report its measured pIC50.
8.70

Given the entry O=C(N[C@H]1CO[C@H]2[C@@H]1OC[C@@H]2Oc1ccc(F)cc1)N[C@H]1CCCC[C@@H]1OCc1ccccc1 [Example 163] , report its measured pIC50.
6.72

Given the entry O=C(NC1CCCCC1)N[C@H]1CO[C@H]2[C@@H]1OC[C@@H]2Oc1cccc2c1CCC2=O [Example 144] , report its measured pIC50.
9.00

Given the entry CC(C)(C)Oc1ccc(O[C@H]2CO[C@H]3[C@@H]2OC[C@@H]3NC(=O)NC2CCCCC2)cc1 [Example 116] , report its measured pIC50.
8.52

Given the entry O=C(NC1CCCCC1)N[C@H]1CO[C@H]2[C@@H]1OC[C@@H]2SCC(F)(F)F [Example 45] , report its measured pIC50.
7.60

Given the entry Cc1cc(O[C@H]2CO[C@H]3[C@@H]2OC[C@@H]3NC(=O)NC2CCCCC2)cc(C)n1 [Example 67] , report its measured pIC50.
9.00

Given the entry CCOC1COCCC1NC(=O)N[C@H]1CO[C@H]2[C@@H]1OC[C@@H]2Oc1cccnc1C (stereo partly drawn) [Example 79, hydrochloride] , report its measured pIC50.
6.01

Given the entry Cc1ncccc1O[C@H]1CO[C@H]2[C@@H]1OC[C@@H]2NC(=O)NC(C)(C)CN1CCOCC1 [Example 197] , report its measured pIC50.
5.94

Given the entry Cc1ncccc1O[C@H]1CO[C@H]2[C@@H]1OC[C@@H]2NC(=O)NC1CCCCC1C (stereo partly drawn) [Example 259] , report its measured pIC50.
8.30

Given the entry Cc1ncccc1O[C@H]1CO[C@H]2[C@@H]1OC[C@@H]2NC(=O)NCc1cccc2c1OCCO2 [Example 200] , report its measured pIC50.
7.06

Given the entry O=C(Nc1ccc(F)cc1)N[C@H]1CO[C@H]2[C@@H]1OC[C@@H]2C#Cc1ccsc1 [Example 306] , report its measured pIC50.
6.72

---

# target: recombinant sEH (Homo sapiens)
# Construct: made in house; host or cells: Sf9 insect cells
# test protocol: biochemical screening assay for inhibition of soluble epoxide hydrolase (fluorometric, Phome substrate)
Field: pIC50. Provide a value for each of the molecules that follow.
Please keep in mind that pIC50 is minus log10 of the molar concentration; only the number is needed.

Given the entry O=C(N[C@H]1CO[C@H]2[C@@H]1OC[C@@H]2Oc1ccc(F)cc1)N[C@@H]1CCCC[C@H]1OCc1ccccc1 , report its measured pIC50.
6.31

Given the entry Cc1ncccc1O[C@H]1CO[C@H]2[C@@H]1OC[C@@H]2NC(=O)NC1COC(C)(C)OC1 , report its measured pIC50.
5.94

Given the entry Cc1ncccc1O[C@H]1CO[C@H]2[C@@H]1OC[C@@H]2NC(=O)NC1CCC(C)CC1 (stereo partly drawn) , report its measured pIC50.
8.52

Given the entry O=C(NC1CCCCC1)N[C@H]1CO[C@H]2[C@@H]1OC[C@@H]2Oc1ccccn1 , report its measured pIC50.
7.92

Given the entry O=C(Nc1ccc(OC(F)(F)F)cc1)N[C@H]1CO[C@@H]2[C@@H](CCc3ccccc3)CO[C@@H]21 , report its measured pIC50.
7.96

Given the entry Cc1ncccc1O[C@H]1CO[C@H]2[C@@H]1OC[C@@H]2NC(=O)NC1CCC2(CC1)OCCO2 , report its measured pIC50.
7.80

Given the entry Cc1ncccc1O[C@H]1CO[C@H]2[C@@H]1OC[C@@H]2NC(=O)N[C@H]1CC[C@H](C)CC1 , report its measured pIC50.
8.70

Given the entry O=C(NCc1ccc(F)cc1)N[C@H]1CO[C@H]2[C@@H]1OC[C@@H]2C#Cc1ccsc1 , report its measured pIC50.
6.55

Given the entry O=C(Nc1cccc(F)c1)N[C@H]1CO[C@H]2[C@@H]1OC[C@@H]2C#Cc1ccsc1 , report its measured pIC50.
6.84

Given the entry O=C(Nc1ccc(F)cc1)N[C@H]1CO[C@H]2[C@@H]1OC[C@@H]2/C=C\c1ccsc1 , report its measured pIC50.
7.05

Given the entry Cc1ncccc1O[C@H]1CO[C@H]2[C@@H]1OC[C@@H]2NC(=O)NC1CCN(C)C1=O (stereo partly drawn) , report its measured pIC50.
5.45

Given the entry CC1CSc2c(O[C@H]3CO[C@H]4[C@@H]3OC[C@@H]4NC(=O)NC3CCCCC3)csc21 (stereo partly drawn) , report its measured pIC50.
7.85

Given the entry Cc1ncccc1O[C@H]1CO[C@H]2[C@@H]1OC[C@@H]2NC(=O)N1CCCC(F)(F)C1 , report its measured pIC50.
6.03

Given the entry Cc1ncccc1O[C@H]1CO[C@H]2[C@@H]1OC[C@@H]2NC(=O)NC1CCCN(S(C)(=O)=O)C1 (stereo partly drawn) , report its measured pIC50.
7.39

Given the entry O=C(NCCc1cccs1)N[C@H]1CO[C@@H]2[C@@H](CCc3ccccc3)CO[C@@H]21 , report its measured pIC50.
7.37

---

# target: recombinant sEH (Homo sapiens)
# test protocol: biochemical screening assay for inhibition of soluble epoxide hydrolase (fluorometric, Phome substrate)
Structures can show the parent of a compound that is named as a salt.
recorded metric: pIC50
Please keep in mind that pIC50 is minus log10 of the molar concentration; only the number is needed.

Find the measured pIC50: item O=C(NCCc1ccccc1)N[C@H]1CO[C@@H]2[C@@H](CCc3ccccc3)CO[C@@H]21 [Example 371] , target or system recombinant sEH (Homo sapiens).
7.62

Find the measured pIC50: item Cc1ncccc1OC1COC2C(NC(=O)NCCc3ccccc3OC(F)(F)F)COC12 (centres unmarked) [Example 206] , target or system recombinant sEH (Homo sapiens).
8.70

Find the measured pIC50: item O=C(Nc1ccc(F)cc1)NC1COC2C(CCc3ccsc3)COC12 (centres unmarked) [Example 366] , target or system recombinant sEH (Homo sapiens).
8.05

Find the measured pIC50: item O=C(NC1CCCCC1)N[C@H]1CO[C@H]2[C@@H]1OC[C@@H]2Oc1cccc([N+](=O)[O-])c1 [Example 140] , target or system recombinant sEH (Homo sapiens).
8.52

Find the measured pIC50: item Cn1ccnc1-c1ccc(O[C@H]2CO[C@H]3[C@@H]2OC[C@@H]3NC(=O)NC2CCCCC2)cc1 [Example 32] , target or system recombinant sEH (Homo sapiens).
8.52

Find the measured pIC50: item Cc1csc(S[C@H]2CO[C@H]3[C@@H]2OC[C@@H]3NC(=O)NC2CCCCC2)n1 [Example 58] , target or system recombinant sEH (Homo sapiens).
8.70

Find the measured pIC50: item O=C(NC1CCCCC1)N[C@H]1CO[C@H]2[C@@H]1OC[C@@H]2Oc1cccc(C2CCNCC2)c1 [Example 108, trifluoroacetate] , target or system recombinant sEH (Homo sapiens).
7.64

Find the measured pIC50: item O=C(NC1CCCCC1)N[C@H]1CO[C@H]2[C@@H]1OC[C@@H]2Oc1cccc(N2CCCC2=O)c1 [Example 107] , target or system recombinant sEH (Homo sapiens).
8.70

These measurements were taken from patent US9540391B2.
